Values were extracted from PubChem BioAssay (NCI).

System: A549 NSCLC
Test: NCI tumour cell line growth inhibition, 48 h
property_label: TGI

As a guide, the following entries are already answered.
[[record]]
molecule = "CC(C)=CCC12Cc3ccc(O)cc3C(C(C)CN1)C2C (configuration not stated)"
tested_target = "A549 NSCLC"
property_label = "TGI"
endpoint_result = "> 100 µM"

[[record]]
molecule = "COc1cc(/C=C2\\CN(C)CC3=C2Nc2nc(SC)[nH]c(=O)c2C3c2cc(OC)c(OC)c(OC)c2)cc(OC)c1OC (configuration not stated)"
tested_target = "A549 NSCLC"
property_label = "TGI"
endpoint_result = "13.7 µM"

[[record]]
molecule = "C[N+]1(CCN=C=NC2CCCCC2)CCOCC1"
tested_target = "A549 NSCLC"
property_label = "TGI"
endpoint_result = "> 100 µM"


Q: Item CC[C@H](C)[C@H](NC(=O)c1cnccn1)C(=O)N(C)[C@H](C[C@@H](OC(C)=O)c1nc(C(=O)N[C@@H](Cc2ccccc2)C[C@H](C)C(=O)OC)cs1)C(C)C with A549 NSCLC - TGI?
A: > 33.3 µM

Q: Next molecule: Cn1nc2c(c1N)Cc1c(nn(C)c1N)-c1ccccc1-2
A: > 100 µM

Q: Entry to check: CC(CO)[C@H]1OC(=O)C=C2[C@@]13O[C@@H]3[C@H]1OC(=O)[C@@]3(C)[C@H]4O[C@H]4C[C@@]2(C)[C@@H]13 (some centres not stated)
A: > 39.8 µM

Q: Another molecule: N/C(=N\OC(=O)c1ccccc1)C(C(=O)NOC(=O)c1ccccc1)C1CCCCC1 (configuration not stated)
A: 5.05 µM

====

Tested on: XF 498 CNS
Assay: NCI tumour cell line growth inhibition, 48 h
property_label: TGI

[[record]]
compound = "COc1ccc(C(C2=C(C)C(=O)c3ccccc3C2=O)c2ccc(C(C)C)cc(=O)c2O)cc1 (stereo not drawn)"
endpoint_result = "34.1 µM"

[[record]]
compound = "Nc1nc2c(ncn2Cc2ccccc2CCO)c(=O)[nH]1"
endpoint_result = "> 100 µM"


Q: Query: TGI; subject: CC(=O)N(CCN)CCN
A: > 100 µM

Q: Next up: O=C1c2ccccc2N2OC3(N4CCCC4)CCCC3C12c1ccccc1 (stereo not drawn)
A: > 100 µM

Q: Next compound: Cc1nc2c(n1CC(C)(C)C)C(=O)c1ccccc1C2=O
A: > 100 µM

Q: Check Cc1cc(Cl)ccc1NC(=O)C(=O)Cc1nc2ccc(C(=O)c3ccccc3)cc2[nH]c1=O too.
A: > 100 µM

Q: // repeat for COC(=O)C1=CCON(c2ccccc2)C1c1ccccc1 (stereo not drawn) and report
A: > 100 µM

====

Tested on: HCT-15 colon
Experiment: NCI tumour cell line growth inhibition, 48 h; in the data active = GI50 below about 0.43 µM; inactive = the rest
Write down the outcome that applies. Available outcomes: yes (1) for active, no (0) for inactive

[[record]]
molecule = "COc1cc(C2c3cc4c(cc3[C@@H](Nc3ccc(N(C)C)cc3)[C@H]3COC(=O)C23)OCO4)cc(OC)c1O (stereo partly drawn)"
class_name = "no (0)"

[[record]]
molecule = "CS(=O)(=O)c1ccc(Cl)c([N+](=O)[O-])c1"
class_name = "no (0)"

[[record]]
molecule = "C[n+]1cc2c3c(ccc2c2ccc4cc5c(cc4c21)OCO5)OCO3"
class_name = "no (0)"

[[record]]
molecule = "COc1ccc(-c2cc(-c3ccc(Cl)cc3)c(C#N)c(=O)n2CCCCC(=O)Nc2ccccc2N)cc1"
class_name = "no (0)"


Q: Dear all, I need the recorded test outcome for CC1(C)N=C(N)N=C(N)N1c1ccc(CCc2ccccc2)c(Cl)c1 , thank you.
A: no (0)

Q: Also CNC(=O)Nc1ccc(-c2nc(N3CCOCC3)nc3c2cnn3C2CCOCC2)cc1 ?
A: yes (1)

Q: Continue with CCN1CCN(Cc2ccc(NC(=O)Nc3ccc(-n4ccc5c(NC(=O)c6ccccc6)nccc54)cc3)cc2C(F)(F)F)CC1
A: yes (1)

====

Test system: SF-539 CNS
Test: NCI tumour cell line growth inhibition, 48 h; in the data active = GI50 below about 0.43 µM; inactive = the rest
Your reply should match one of these outcome classes. YES = active, NO = inactive

Some solved entries appear below for comparison.
[[record]]
compound = "CSc1ccc(C2=Nn3c(nnc3-c3ccc(F)c(Cl)c3)SC2)cc1"
class_name = "NO"

[[record]]
compound = "C[C@]12CC[C@@H]3c4ccc(O)c([N+](=O)[O-])c4CC[C@H]3[C@@H]1CC[C@@H]2NS(=O)(=O)c1ccc(C(F)(F)F)cc1"
class_name = "NO"

[[record]]
compound = "CC[C@H](C)[C@H](NC(=O)c1cnccn1)C(=O)N(C)[C@H](C[C@@H](OC(C)=O)c1nc(C(=O)N[C@@H](Cc2ccccc2)C[C@H](C)C(=O)OC)cs1)C(C)C"
class_name = "NO"


Q: What call does the record list for CCOC(=O)c1c(NC(=O)c2ccc(C(C)C)cc2)sc2c(CN(C)C)c(O)ccc12 ?
A: NO

Q: Next up: C#C[C@]1(O)CC[C@H]2[C@@H]3CC=C4c5nc(Nc6ccccn6)sc5CC[C@]4(C)[C@H]3CC[C@@]21C
A: YES

Q: Now try N/C(=N\OC(=O)c1ccccc1)C(C(=O)NOC(=O)c1ccccc1)C1CCCCC1 (stereo unspecified) .
A: NO

Q: Now this one: Cc1ccc(C(=O)Nc2ccc(CN3CCN(C)CC3)c(C(F)(F)F)c2)cc1C#Cc1cnc(N)c2ccc(F)cc12
A: NO

Q: Next record, please: CCN(c1ccc(CO)c(Cl)c1)C(C)c1ccc(F)cc1 (stereo unspecified)
A: NO

Q: Please answer likewise for S=C(N/N=C/c1cc(Cl)cc(Cl)c1)NC12CC3CC(CC(C3)C1)C2
A: NO

====

Test system: COLO 205 colon
Assay: NCI tumour cell line growth inhibition, 48 h
Documented TGI across a set of compounds

// worked examples, TGI included
[[record]]
compound = "COc1cc2[nH]c(=O)c3cc(-c4ccccc4)cc4c(Cl)nc(c1OC)c2c43"
endpoint_result = "38.5 µM"

[[record]]
compound = "Nc1nncc2[nH]cnc12"
endpoint_result = "> 60.9 µM"

[[record]]
compound = "COc1cc2cc(Oc3ccc(NC(=O)c4cccc(C(F)(F)F)c4)cc3)c(C)nc2cc1OC"
endpoint_result = "> 100 µM"

[[record]]
compound = "COc1ccc(-c2cc(-c3ccc(Cl)cc3)c(C#N)c(=O)n2CCCCC(=O)Nc2ccccc2N)cc1"
endpoint_result = "> 100 µM"

[[record]]
compound = "CCOC(=O)C1(C(=O)OCC)CCC(C(OC)OC)C(CC(=O)OC)C1 (stereo not given)"
endpoint_result = "> 10 µM"


Q: Any idea what TGI was measured for O=C1NC(=S)NC(=O)C1C(c1ccc(Cl)cc1)C1C(=O)NC(=S)NC1=O ?
A: > 100 µM

Q: Entry CCN1CCN(Cc2ccc(NC(=O)Nc3ccc(-n4ccc5c(NC(=O)c6ccccc6)nccc54)cc3)cc2C(F)(F)F)CC1 please
A: 2.51 µM

Q: What about this compound? Nc1c(S(N)(=O)=O)cc(S(N)(=O)=O)cc1S(N)(=O)=O
A: > 100 µM

Q: Next entry: CCCCCCc1cc2cc(-c3csc(-c4ccc(OC)cc4)n3)c(=O)oc2cc1O
A: > 100 µM

Q: And then Clc1ccc(OCc2nnc(COc3ccc(OCc4nnc(COc5ccc(Cl)cc5Cl)o4)c(Cl)c3)o2)c(Cl)c1 , what is it?
A: 74.9 µM

====

Listing of entries alongside the reported GI50.
Test system: SK-MEL-28 melanoma
Assay: NCI tumour cell line growth inhibition, 48 h

Worked cases, GI50 given:
[[record]]
molecule = "CC[O-].CC[O-].O=C1C(=C([O-])c2ccccc2)C(=O)c2ccccc21.O=C1C(=C([O-])c2ccccc2)C(=O)c2ccccc21.[Ti+4]"
endpoint_result = "> 10 µM"

[[record]]
molecule = "N/C(=N\\OC(=O)c1ccccc1)C(C(=O)NOC(=O)c1ccccc1)C1CCCCC1 (stereo not drawn)"
endpoint_result = "16.2 µM"

[[record]]
molecule = "Clc1ccc([O][In]([O]c2ccc(Cl)cn2)[O]c2ccc(Cl)cn2)nc1"
endpoint_result = "> 100 µM"

[[record]]
molecule = "CSc1ccc(C2=Nn3c(nnc3-c3ccc(F)c(Cl)c3)SC2)cc1"
endpoint_result = "34.2 µM"

[[record]]
molecule = "S=C(N/N=C/c1cc(Cl)cc(Cl)c1)NC12CC3CC(CC(C3)C1)C2"
endpoint_result = "14.4 µM"


Q: Reported GI50, molecule CC(C)N(C(C)C)[PH+]1O[PH+](N(C(C)C)C(C)C)O[PH+](N(C(C)C)C(C)C)O[PH+](N(C(C)C)C(C)C)O[PH+](N(C(C)C)C(C)C)O1.[C-]#[O+].[C-]#[O+].[C-]#[O+].[C-]#[O+].[C-]#[O+].[C-]#[O+].[C-]#[O+].[Cr].[Cr] (stereo not drawn) : ____
A: > 100 µM

Q: // next record COc1ccc(C(=O)N2c3ccccc3Sc3ccccc32)c(F)c1
A: 1.64 µM

Q: Same for O=C1/C(=C/c2ccc(Cl)cc2)CCCc2ccc(F)cc21
A: 14.7 µM
